// viability lookup, one value per entry
assay_explanation: drug combination growth inhibition, ovarian cancer – cell-based, oncology-focused library, rucaparib conditional, profiling panel (AID 1508598)
condition_set: patient-derived ovarian cancer cells, CellTiter-Glo viability, 144 h; at 0.0781 µM; OCI-P5x cells; with rucaparib 20 µM; hits give low values; 100% = cells with rucaparib alone
Active and inactive are the calls of the source.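 Rule for the calls: active = normalized viability below 100% at a tested concentration; inactive = the rest.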

[
  {
    "compound": "CN(Cc1cnc2nc(N)nc(N)c2n1)c1ccc(C(=O)N[C@@H](CCC(=O)O)C(=O)O)cc1",
    "viability": "110% (inactive)"
  },
  {
    "compound": "Cn1nnc2c(C(N)=O)ncn2c1=O",
    "viability": "112% (inactive)"
  },
  {
    "compound": "N#Cc1ccc(C(c2ccc(C#N)cc2)n2cncn2)cc1",
    "viability": "106% (inactive)"
  },
  {
    "compound": "CCC(C)n1ncn(-c2ccc(N3CCN(c4ccc(OC[C@H]5CO[C@](Cn6cncn6)(c6ccc(Cl)cc6Cl)O5)cc4)CC3)cc2)c1=O (stereo not given in full)",
    "viability": "96.6% (active)"
  },
  {
    "compound": "Cc1nc(-c2ccc(OCC(C)C)c(C#N)c2)sc1C(=O)O",
    "viability": "104% (inactive)"
  },
  {
    "compound": "O=NN(CCCl)C(=O)NC1CCCCC1",
    "viability": "97.7% (active)"
  },
  {
    "compound": "Cc1cc2c(C(C)C)c(O)c(O)c(C=O)c2c(O)c1-c1c(C)cc2c(C(C)C)c(O)c(O)c(C=O)c2c1O",
    "viability": "108% (inactive)"
  },
  {
    "compound": "NC(=O)NO",
    "viability": "106% (inactive)"
  },
  {
    "compound": "COC(=O)Nc1nc2ccc(C(=O)c3cccs3)cc2[nH]1",
    "viability": "62.5% (active)"
  },
  {
    "compound": "CC(c1cc2ccccc2s1)N(O)C(N)=O (stereo not given)",
    "viability": "97.3% (active)"
  }
]
